Test system: HEK293
Test: Inhibition of TGFbeta/Smad in TGFbeta-2/activin A-stimulated HEK293 cells preincubated at 2.5 uM for 2 hrs before stimulation measured after 20 to 22 hrs by firefly/renilla luciferase reporter assay
Assay type: cell-based
Conditions: Homo sapiens
Each entry below carries its reported inhibition.
Give the number; % is assumed, so skip it.

Previously resolved entries follow.
Lookup: So what's the measured inhibition for this one? CC1(C)CC(=O)C2=C(C1)NC1=C(C(=O)c3ccccc31)C2c1ccc(-c2ccccc2)cc1 (stereo not given)
Found: 70

Lookup: So what's the measured inhibition for this one? CCNC(=O)C1=C(C)NC2=C(C(=O)CC(C)(C)C2)C1c1ccc(-c2ccccc2)cc1 (stereo not given)
Found: 31

Lookup: So what's the measured inhibition for this one? CC1=C(C#N)C(c2ccc(-c3ccccc3)cc2)C2=C(CC(C)(C)CC2=O)N1 (stereo not given)
Found: 44

Lookup: So what's the measured inhibition for this one? CCOC(=O)C1=C(C)NC2=C(C(=O)CC(C)(C)C2)C1c1ccc(-c2ccc(C(F)(F)F)cc2)cc1 (stereo not given)
Found: 88

Query compound follows.
Lookup: So what's the measured inhibition for this one? CC1=C(C(=O)NCc2ccccc2)C(c2ccc(-c3ccccc3)cc2)C2=C(CC(C)(C)CC2=O)N1 (stereo not given)
Found: 32

* * *

Tested on: HEK293
Experiment: Inhibition of TGFbeta/Smad in TGFbeta-2/activin A-stimulated HEK293 cells preincubated at 2.5 uM for 2 hrs before stimulation measured after 20 to 22 hrs by firefly/renilla luciferase reporter assay
Type: cell-based
Settings: Homo sapiens
Tag: t if measured inhibition is not below 60%, f if it is.

# count of solved cases: 4
Lookup: Tell me whether inhibition is at least 60% here: CC1(C)CC(=O)C2=C(C1)NC1=C(C(=O)N(Cc3ccccc3)C1)C2c1ccc(-c2ccccc2)cc1 (stereo unspecified)
Found: t

Lookup: Tell me whether inhibition is at least 60% here: CCCNCC1=C(C(=O)OCC)C(c2ccc(-c3ccccc3)cc2)C2=C(CC(C)(C)CC2=O)N1 (stereo unspecified)
Found: f

Lookup: Tell me whether inhibition is at least 60% here: CC1(C)CC(=O)C2=C(C1)NC1=C(C(=O)c3ccccc31)C2c1ccccc1 (stereo unspecified)
Found: f

Lookup: Tell me whether inhibition is at least 60% here: CCOC(=O)C1=C(N)NC2=C(C(=O)CC(C)(C)C2)C1c1ccc(C(C)(C)C)cc1 (stereo unspecified)
Found: t

---
Lookup: Tell me whether inhibition is at least 60% here: CC1=C(C(=O)OC(C)(C)C)C(c2ccc(-c3ccccc3)cc2)C2=C(CC(C)(C)CC2=O)N1 (stereo unspecified)
Found: t

Lookup: Tell me whether inhibition is at least 60% here: CCOC(=O)C1=C(C)NC2=C(C(=O)CC(C)(C)C2)C1c1ccc(-c2ccc(F)cc2)cc1 (stereo unspecified)
Found: t

Lookup: Tell me whether inhibition is at least 60% here: CCC(=O)C1=C(CC)NC2=C(C(=O)CC(C)(C)C2)C1c1ccc(-c2ccccc2)cc1 (stereo unspecified)
Found: t

Lookup: Tell me whether inhibition is at least 60% here: CCCCC(=O)C1=C(C)NC2=C(C(=O)CC(C)(C)C2)C1c1ccc(-c2ccccc2)cc1 (stereo unspecified)
Found: t

Lookup: Tell me whether inhibition is at least 60% here: CC1(C)CC(=O)C2=C(C1)NC1=C(C(=O)NC1)C2c1ccc(-c2ccccc2)cc1 (stereo unspecified)
Found: f

Lookup: Tell me whether inhibition is at least 60% here: CCOC(=O)C1=C(C(=O)OCC)C(c2ccc(-c3ccccc3)cc2)C2=C(CC(C)(C)CC2=O)N1 (stereo unspecified)
Found: f

Lookup: Tell me whether inhibition is at least 60% here: `CCN(CC)CCN1C2=C(C(=O)CC(C)(C)C2)C(c2ccccc2)C2=C1CC(C)(C)CC2=O`
Found: f

* * *

Test system: HEK293
Assay: Inhibition of TGFbeta/Smad in TGFbeta-2/activin A-stimulated HEK293 cells preincubated at 2.5 uM for 2 hrs before stimulation measured after 20 to 22 hrs by firefly/renilla luciferase reporter assay
Assay type: cell-based
Conditions: Homo sapiens
Each entry below carries its reported inhibition.
Give the number; % is assumed, so skip it.

Lookup: So what's the measured inhibition for this one? CC1(C)CC(=O)C2=C(C1)NC1=C(C(=O)OC1)C2c1ccc(-c2ccccc2)cc1 (centres undefined)
Found: 37

Lookup: So what's the measured inhibition for this one? `CCOCCOC(=O)C1=C(C)NC(C)=C(C(=O)OCCOCC)C1c1ccccc1OC(F)(F)F`
Found: 4

Lookup: So what's the measured inhibition for this one? C#Cc1ccc(C2C(C(=O)OCC)=C(C)NC3=C2C(=O)CC(C)(C)C3)cc1 (centres undefined)
Found: 59

Query molecule follows.
Lookup: So what's the measured inhibition for this one? C=CCOC(=O)C1=C(C)NC2=C(C(=O)CC(C)(C)C2)C1c1ccc(-c2ccccc2)cc1 (centres undefined)
Found: 91

* * *

Tested on: HEK293
Assay: Inhibition of TGFbeta/Smad in TGFbeta-2/activin A-stimulated HEK293 cells preincubated at 2.5 uM for 2 hrs before stimulation measured after 20 to 22 hrs by firefly/renilla luciferase reporter assay
Type: cell-based
Conditions: Homo sapiens
Tag: Yes if measured inhibition is not below 40%, No if it is.

# count of solved cases: 4
Lookup: Tell me whether inhibition is at least 40% here: CCOC(=O)C1=C(C)NC2=C(C(=O)CC(C)(C)C2)C1c1ccccc1OC(F)(F)F (stereo not given)
Found: No

Lookup: Tell me whether inhibition is at least 40% here: CCOC(=O)C1=C(C)NC2=C(C(=O)CC(C)(C)C2)C1c1ccc(-c2ccc(S(C)(=O)=O)cc2)cc1 (stereo not given)
Found: Yes

Lookup: Tell me whether inhibition is at least 40% here: CCOC(=O)C1=C(C)NC2=C(C(=O)CC(C)(C)C2)C1c1ccc(-c2ccc(N(C)C)cc2)cc1 (stereo not given)
Found: Yes

Lookup: Tell me whether inhibition is at least 40% here: CCOC(=O)C1=C(C)NC2=C(C(=O)CC(C)(C)C2)C1c1ccc(C(C)(C)C)cc1 (stereo not given)
Found: Yes

Now look at this entry.
Lookup: Tell me whether inhibition is at least 40% here: CCOC(=O)C1=C(C(=O)O)NC2=C(C(=O)CC(C)(C)C2)C1c1ccc(-c2ccccc2)cc1 (stereo not given)
Found: No
